Attribute: pIC50
Molecular target: CDK12 wt/CycK (Homo sapiens (Human), UniProt Q9NYV4)
Sequence (Q9NYV4 whole entry): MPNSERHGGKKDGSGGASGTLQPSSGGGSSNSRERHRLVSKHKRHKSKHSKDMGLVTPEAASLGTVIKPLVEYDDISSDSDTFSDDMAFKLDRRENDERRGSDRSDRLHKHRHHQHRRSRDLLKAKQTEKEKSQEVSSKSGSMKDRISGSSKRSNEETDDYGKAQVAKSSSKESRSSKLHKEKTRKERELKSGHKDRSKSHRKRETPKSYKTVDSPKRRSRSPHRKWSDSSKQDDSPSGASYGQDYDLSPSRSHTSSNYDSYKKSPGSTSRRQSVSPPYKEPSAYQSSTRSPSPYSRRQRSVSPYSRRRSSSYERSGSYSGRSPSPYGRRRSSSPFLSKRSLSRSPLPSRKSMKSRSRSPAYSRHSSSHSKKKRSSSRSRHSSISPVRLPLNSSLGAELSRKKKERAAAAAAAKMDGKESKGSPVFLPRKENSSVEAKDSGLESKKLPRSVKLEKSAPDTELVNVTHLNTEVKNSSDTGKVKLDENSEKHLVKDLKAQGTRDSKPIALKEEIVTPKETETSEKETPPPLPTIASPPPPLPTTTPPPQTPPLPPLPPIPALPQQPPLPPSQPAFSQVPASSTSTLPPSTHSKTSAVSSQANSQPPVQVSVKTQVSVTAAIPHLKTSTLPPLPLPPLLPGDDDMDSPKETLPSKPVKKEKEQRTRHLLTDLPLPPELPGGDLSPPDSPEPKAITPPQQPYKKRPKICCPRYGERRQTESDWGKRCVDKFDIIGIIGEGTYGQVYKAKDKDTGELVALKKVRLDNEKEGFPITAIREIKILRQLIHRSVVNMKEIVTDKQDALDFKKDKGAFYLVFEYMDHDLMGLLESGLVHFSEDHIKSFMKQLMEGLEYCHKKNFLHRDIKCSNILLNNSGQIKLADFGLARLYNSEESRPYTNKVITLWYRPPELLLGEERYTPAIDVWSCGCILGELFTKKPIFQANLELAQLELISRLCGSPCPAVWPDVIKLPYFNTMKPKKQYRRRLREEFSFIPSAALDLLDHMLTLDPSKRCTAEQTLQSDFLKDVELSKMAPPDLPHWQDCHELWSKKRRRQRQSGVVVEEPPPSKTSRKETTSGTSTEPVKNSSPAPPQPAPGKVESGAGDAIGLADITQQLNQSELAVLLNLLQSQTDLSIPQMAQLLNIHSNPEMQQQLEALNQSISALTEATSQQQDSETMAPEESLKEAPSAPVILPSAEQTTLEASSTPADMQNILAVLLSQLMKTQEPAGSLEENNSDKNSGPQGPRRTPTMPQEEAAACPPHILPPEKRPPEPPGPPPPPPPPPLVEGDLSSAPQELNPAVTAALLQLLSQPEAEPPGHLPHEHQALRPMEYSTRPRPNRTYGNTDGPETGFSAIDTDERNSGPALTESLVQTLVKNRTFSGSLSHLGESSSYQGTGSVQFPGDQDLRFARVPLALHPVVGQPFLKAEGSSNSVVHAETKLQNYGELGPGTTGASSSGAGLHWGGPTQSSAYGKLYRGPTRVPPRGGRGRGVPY
Sequence (O75909 whole entry partner): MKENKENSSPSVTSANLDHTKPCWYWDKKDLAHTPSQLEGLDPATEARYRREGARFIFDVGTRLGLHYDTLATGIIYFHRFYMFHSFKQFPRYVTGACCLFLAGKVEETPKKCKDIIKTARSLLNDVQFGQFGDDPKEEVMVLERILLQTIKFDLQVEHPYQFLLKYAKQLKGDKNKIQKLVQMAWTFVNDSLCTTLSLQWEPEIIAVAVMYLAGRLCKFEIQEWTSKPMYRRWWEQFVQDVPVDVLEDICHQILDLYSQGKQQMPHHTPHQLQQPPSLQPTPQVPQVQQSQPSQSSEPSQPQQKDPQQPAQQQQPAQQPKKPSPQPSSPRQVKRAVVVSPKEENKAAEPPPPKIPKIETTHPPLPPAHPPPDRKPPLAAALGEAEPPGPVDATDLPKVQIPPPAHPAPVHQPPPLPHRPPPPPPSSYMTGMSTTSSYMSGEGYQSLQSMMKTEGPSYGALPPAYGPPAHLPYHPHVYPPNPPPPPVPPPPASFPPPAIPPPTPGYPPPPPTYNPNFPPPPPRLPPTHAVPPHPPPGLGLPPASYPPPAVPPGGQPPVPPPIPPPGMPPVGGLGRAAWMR
Test: Radiometric protein kinase assay (33PanQinase), Assay Condition A (thiol containing)
Details: thiol containing (1.2 mM DTT), ATP 0.3 μM
pIC50: −log10 of the molar value.

Some solved cases for reference:
| compound | value |
| --- | --- |
| CCC(=O)Nc1ccc(C(=O)N2CC[C@@H](Nc3ncc4cc(OC)ccc4n3)C2)cc1 [Example 48] | 5.00 to 6.00 |
| C=CC(=O)Nc1ccc(C(=O)N2CCC[C@@H](Nc3ncc4cc(F)ccc4n3)C2)cc1 [Example 4] | 5.00 to 6.00 |

Attention now shifts to the item below.
Exam item: What does the record list as pIC50 for C=CC(=O)Nc1ccc(C(=O)N2CC[C@@H](Nc3ncc4cc(OC)ccc4n3)C2)cc1 [Example 29] ?
Marked response: 6.00 to 7.00
